Assayed system: human CD33 D112A (human, UniProt P20138 18-364)
Sequence (P20138 18-364 D112A limits assumed): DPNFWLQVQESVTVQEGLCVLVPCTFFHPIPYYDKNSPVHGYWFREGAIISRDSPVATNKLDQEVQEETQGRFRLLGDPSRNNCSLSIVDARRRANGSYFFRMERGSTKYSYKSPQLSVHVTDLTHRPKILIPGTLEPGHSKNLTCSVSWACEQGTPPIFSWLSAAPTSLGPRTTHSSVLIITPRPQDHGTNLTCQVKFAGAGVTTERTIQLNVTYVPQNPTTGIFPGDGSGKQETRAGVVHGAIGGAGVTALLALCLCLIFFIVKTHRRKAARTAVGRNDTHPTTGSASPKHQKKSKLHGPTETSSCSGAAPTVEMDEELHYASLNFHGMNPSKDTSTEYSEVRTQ
Experimental protocol: flow cytometry on HEK293-T, alanine scan

{"Binder": "Refmab #1 (antibody, V domains shown, The alanine scan used IgG or Fab; also called hP67.6) VH: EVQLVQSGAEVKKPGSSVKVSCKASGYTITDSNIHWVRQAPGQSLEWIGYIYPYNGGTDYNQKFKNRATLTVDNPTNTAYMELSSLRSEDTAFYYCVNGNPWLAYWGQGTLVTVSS VL: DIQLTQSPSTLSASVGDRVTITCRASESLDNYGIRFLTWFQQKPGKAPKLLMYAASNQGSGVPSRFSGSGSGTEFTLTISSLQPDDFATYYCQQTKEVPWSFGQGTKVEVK", "Mean % WT Binding": "51.8 % WT binding"}
